Assignment: determine reported IC50 for the given molecules.
# Target desc: 11beta-HSD1 (Homo sapiens, UniProt P28845)
# Sequence (P28845 whole entry): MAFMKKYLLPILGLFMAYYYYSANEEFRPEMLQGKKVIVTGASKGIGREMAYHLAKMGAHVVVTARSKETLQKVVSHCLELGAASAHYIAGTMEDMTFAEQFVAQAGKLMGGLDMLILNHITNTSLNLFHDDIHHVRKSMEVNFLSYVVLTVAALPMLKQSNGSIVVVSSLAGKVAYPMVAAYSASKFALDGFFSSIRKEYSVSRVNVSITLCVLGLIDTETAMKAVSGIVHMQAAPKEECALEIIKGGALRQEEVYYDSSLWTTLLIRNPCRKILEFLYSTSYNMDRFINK
# Measurement protocol: In vitro inhibition of recombinant human 11beta-HSD1 (microsomal Scintillation Proximity Assay)
# Type: biochemical
# Set-up: made in house; microsomal fraction used as enzyme source
# Measurement parameters: microsomes from HEK 293 EBNA cells, 250 nM [3H]-cortisone, 500 μM NADPH, pH 6.5, room temperature
# number only, unit nM dropped from output

response.value for N#Cc1ccccc1CSc1nc(O)c(Cl)c2ccccc12 [Example 130] (field: IC50) = 2.7

response.value for N#Cc1cccc(Cl)c1CSc1nc(O)c(C#N)c2ccc(F)cc12 [Example 181] (field: IC50) = 3

response.value for N#Cc1ccccc1CSc1nc(O)c(Cl)c2ccc(Cl)cc12 [Example 132] (field: IC50) = 2.26

response.value for N#Cc1c(O)nc(SCc2cc(F)ccc2F)c2cc(F)ccc12 [Example 175] (field: IC50) = 2.58

response.value for N#Cc1c(O)nc(SCc2ccccc2Cl)c2c1CCNC2 [Example 35] (field: IC50) = 460

response.value for O=S(=O)(Cc1cccc(Cl)c1)c1nc(O)c(Cl)c2ccccc12 [Example 118] (field: IC50) = 530

response.value for N#Cc1c(O)nc(SCc2cccnc2Cl)c2c1CCCC2 [Example 32] (field: IC50) = 2.73
